Test: NCI Yeast Anticancer Drug Screen. Data for the mlh1 rad18 strain (AID 175)
Conditions: S. cerevisiae mlh1 rad18 strain growth inhibition; at 50.0 µM; active compounds read high
This is part of a sample that, as a whole, favours compounds with a hit. Of some 79,000 tested, about 15% had one in any assay.
endpoint.label: growth inhibition (%)
One number for each entry, in %.

Example entries and their recorded answers appear below.
INSERT INTO assay_data (compound, experimental_result) VALUES
  ('Cc1cc(N(C)C)c2ccccc2[n+]1CCCCCCCCCC[n+]1c(C)cc(N(C)C)c2ccccc21', 91.8),
  ('COC(=O)C(F)C(Br)C(=O)OC (stereo not given)', 90),
  ('CC(=O)OC1C2(CC3N4C(=O)C5(CO)SSC4(CC31O)C(=O)N5C)OC(C)C(C)(C)C2=O (stereo not given)', 91.2),
  ('CN(CCc1ccc(Br)cc1)CCN1CCCCC1', 92.5);

Return growth inhibition (reported value) for this compound: CC1CCC2(NC1)OC1CC3C4CCC5CC(OC6OC(CO)C(OC7OC(CO)C(O)C(OC8OCC(O)C(O)C8O)C7OC7OC(CO)C(O)C(O)C7O)C(O)C6O)CCC5(C)C4CCC3(C)C1C2C (stereo not given)
87.6

====

Assay: NCI Yeast Anticancer Drug Screen. Data for the rad50 strain (AID 155);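 note: 0% = growth of vehicle-only cultures of the same strain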
Conditions: S. cerevisiae rad50 strain growth inhibition; at 5.0 µM (retest, dose inferred, filed as 0.5)
About 79,000 compounds went through this panel and 15% of them were active in at least one assay; those are over-represented in the sample as a whole. Active and inactive are the calls of the source. Rule as the data show it: active = growth inhibition above about 70%; inactive = the rest.
Would you mind answering with one of these outcomes? active, inactive

INSERT INTO results (molecule, group_label) VALUES
  ('Cn1cc(/C=C/[N+](=O)[O-])c2ccccc21', 'inactive'),
  ('Oc1ccc([Te]CCNCC[Te]c2ccc(O)cc2)cc1', 'inactive'),
  ('CCCC[CH2][Sn]([CH2]CCCC)[CH2]CCCC.CCCC[CH2][Sn]([CH2]CCCC)[CH2]CCCC', 'active'),
  ('[Cl][Hg][Cl]', 'active'),
  ('C=CCC[CH2][Sn]([c]1ccccc1)([c]1ccccc1)[c]1ccccc1', 'active'),
  ('C[C@]12CC/C(=N\NC(=O)c3ccncc3)C[C@@H]1CC[C@@H]1[C@@H]2CC[C@]2(C)[C@@H](O)CC[C@@H]12', 'inactive'),
  ('CCC/C=[CH]/[Hg][Cl]', 'active'),
  ('CC(C)(C)OOC(=O)c1ccccc1', 'inactive');

Called result for "O=C1C(F)=C(N2CC2)C(=O)C(F)=C1N1CC1"
active

What outcome does the record of this test show for "ClCCN(CCCl)CCN1c2ccccc2Sc2ccc(Cl)cc21" ?
inactive

How did this test come out for "CC[CH2][Sn]([CH2]CC)([CH2]CC)[CH2]CCBr" ?
active

====

Could you please report measured growth inhibition for the items listed next?
Assay: NCI Yeast Anticancer Drug Screen. Data for the wt2 strain (AID 169);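 note: 0% = growth of vehicle-treated yeast cultures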
Details: S. cerevisiae wt2 strain growth inhibition; at 11.0 µM; active compounds read high
This is part of a sample that, as a whole, favours compounds with a hit. Of some 79,000 tested, about 15% had one in any assay.
One number for each entry, in %.

Give measured growth inhibition for every item shown.
1. CC[C@](O)(C(=O)O)c1cc2n(c(=O)c1CO)Cc1cc3ccccc3nc1-2
2. c1cc2c(cc1C1OC[C@H]3[C@@H](c4ccc5c(c4)OCO5)OC[C@@H]13)OCO2 (stereo partly drawn)
3. OC(c1ccc(Br)cc1)C(Cl)(Cl)Cl (stereo not drawn)
4. O=[N+]([O-])c1ccc(C=Cc2ccccc2)cc1.[C-]#[O+].[C-]#[O+].[C-]#[O+].[Cr]
5. CNCC(O)c1ccc(O)c(O)c1.[Pt].c1ccc([PH+](c2ccccc2)c2ccccc2)cc1.c1ccc([PH+](c2ccccc2)c2ccccc2)cc1
6. CNC(=O)OCC1C2=C(C(=O)C(C)=C(N)C2=O)N2CC3C(N3C)C12OC (stereo not drawn)
7. COc1ccc(/C=C(/C)[N+](=O)[O-])cc1
8. CC(Cc1ccccc1)N(C)Cc1nc(C2CCC([N+](=O)[O-])O2)no1 (stereo not drawn)

1. 81
2. 7
3. -21
4. 7
5. 8
6. -39
7. -1
8. 9

Answer for every listed entry: what is its growth inhibition? The entries follow.
1. COc1cc([C@@H]2c3cc4c(cc3C[C@@H]3COC(=O)C32)OCO4)cc(OC)c1O (stereo partly drawn)
2. CNC(Cc1ccccc1)c1ccc(OC)c(OC)c1 (stereo not drawn)
3. CC12CCC(C1)C(C)(C)C2OC(=O)c1ccccc1N (stereo not drawn)
4. COC1CC(CC2CCC(C)C(C(C)C(=O)O)O2)OC2(OC(C)(C3CCC(C)(C4OC(C5OC(O)(CO)C(C)CC5C)CC4C)O3)CC2C)C1C (stereo not drawn)
5. CCN(CCCl)CCCCNc1c2ccccc2nc2ccc(OC)cc12
6. Nc1nc(N)c2c(Cl)c(CNc3ccc(C(=O)NC(CC(=O)O)C(=O)O)cc3)ccc2n1 (stereo not drawn)
7. C[C@]12CCC3[C@@H](CC[C@@H]4c5nonc5CC[C@]34C)C1CCC2=O (stereo partly drawn)

[33, -26, -21, -18, 38, -42, 32]

====

Experiment: NCI Yeast Anticancer Drug Screen. Data for the mlh1 rad18 strain (AID 175)
Details: S. cerevisiae mlh1 rad18 strain growth inhibition; at 5.0 µM (retest, dose inferred, filed as 0.5); active compounds read high
The panel holds about 79,000 compounds, 15% with a hit somewhere; the sample as a whole holds those more often.
endpoint.label: growth inhibition (%)
Numbers only, in %.

These solved cases illustrate the format of a correct answer.
INSERT INTO assay_data (compound, endpoint_label, experimental_result) VALUES
  ('CC(C)=[CH][Sb]([Br])([CH]=C(C)C)([CH]=C(C)C)[c]1ccccc1', 'growth inhibition', -11),
  ('C1CC[N-]CC1.[Cl][Au]([Cl])[Cl]', 'growth inhibition', 34),
  ('O=C(N/N=C/c1ccc(F)cc1)c1ccc(N(CCCl)CCCl)cc1', 'growth inhibition', -3),
  ('c1ccc2c(c1)c1cccc3c4c5ccccc5c5cccc(c2c13)c54', 'growth inhibition', -3),
  ('CCC[CH2][Sn]([N]=C=S)([N]=C=S)[N]=C=S.O=P(c1ccccc1)(c1ccccc1)c1ccccc1.O=P(c1ccccc1)(c1ccccc1)c1ccccc1', 'growth inhibition', -4),
  ('CCc1ccc2c(c1)N(CCCN(CCCl)CCCl)c1ccccc1S2', 'growth inhibition', -2),
  ('c1ccc2c[n+](CCCCCCCCCC[n+]3ccc4ccccc4c3)ccc2c1', 'growth inhibition', 72),
  ('CCN(CC)CC(=O)O[C@]1(CC)C(=O)OCc2c1cc1n(c2=O)Cc2cc3ccccc3nc2-1', 'growth inhibition', 91),
  ('COc1cc2ccccc2c2cc([N+](=O)[O-])oc12', 'growth inhibition', 89),
  ('COP(=S)(OC)N(C)C(=O)Oc1cccc2ccccc12', 'growth inhibition', -14);

// each compound listed below needs its growth inhibition
1. CCOC(=O)C1=C(C(=O)OCC)C2(c3ccccc3)N(O1)c1ccccc1C2(C)C (centres undefined)
2. O=CNc1ccccc1.[Hg]
3. O=[N+]([O-])c1cc(S(=O)(=O)F)ccc1Cl
4. CN(Cc1ccccc1)CC(O)c1ccc(Cl)cc1 (centres undefined)

1. 32
2. 98
3. 32
4. 4

====

Test: NCI Yeast Anticancer Drug Screen. Data for the mlh1 strain (AID 171);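 note: 0% = growth of vehicle-treated control cultures of the same strain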
Settings: S. cerevisiae mlh1 strain growth inhibition; at 1.2 µM; active compounds read high
This is part of a sample that, as a whole, favours compounds with a hit. Of some 79,000 tested, about 15% had one in any assay.
Field: growth inhibition. Provide a value for each of the molecules that follow.
Numbers only, in %.

INSERT INTO measurements (molecule, endpoint_label, experimental_result) VALUES
  ('CC1=C[C@H]2O[C@@H]3C[C@H]4OC(=O)/C=C\C=C\C(C(C)O)OCC(O)C(C)CC(=O)OC[C@@]2(C[C@@H]1O)[C@]4(C)[C@@]31CO1 (some centres undefined)', 'growth inhibition', -73),
  ('Nc1nc(N)c(-c2ccc(Cl)c(Cl)c2)c(CP(Cl)(Cl)(Cl)Br)n1', 'growth inhibition', -8),
  ('Oc1ccc(Cl)cc1Cc1ccccc1', 'growth inhibition', 12),
  ('O=[N+]([O-])c1ccc(C=Cc2ccccc2)cc1.[C-]#[O+].[C-]#[O+].[C-]#[O+].[Cr]', 'growth inhibition', -1);

Below is a list of molecules. For each, state its recorded growth inhibition.
1. COc1ccc(OC)c(/C=C/[N+](=O)[O-])c1
2. CCCCN(CCCC)CC(C(C)=O)C(c1ccccc1)c1c(O)c2ccccc2oc1=O (centres undefined)
3. CNC(=O)OCC1C2=C(C(=O)C(C)=C(N)C2=O)N2CC3C(N3C)C12OC (centres undefined)
4. Oc1ccc2nc3ccccc3nc2c1
5. COc1cccc2c1C(=O)c1c(O)c3c(c(O)c1C2=O)C[C@@](O)(/C(C)=N\O)C[C@@H]3OC1CC(N)C(O)C(C)O1 (some centres undefined)
6. c1ccc2cc3n[se]nc3cc2c1
7. COc1cccc2c1C(=O)c1c(O)c3c(c(O)c1C2=O)C[C@@](O)(C(C)=O)C[C@@H]3OC1CC(N)C(OC2CC(O)C(O)C(C)O2)C(C)O1 (some centres undefined)

1. 10
2. 0
3. -17
4. -3
5. 1
6. 2
7. -25

Could you tell me growth inhibition for each of these molecules? They are listed below.
1. Br[Se]c1ccccn1
2. CCN(CCCl)c1cc(CN(C)C)cc(NC(=O)c2ccc(C(=O)Nc3cc(CN(C)C)cc(N(CC)CCCl)c3)cc2)c1
3. CCOP(=S)(S)OCC.[Pd]

1. -1
2. -6
3. 4
